Every entry's value here was drawn from paper PMC7587962.

# Test system: 60 human tumor cell lines
# CONDITION: single dose 10 µM, number of cell lines

COMPOUND: CC(=O)OCC12CCC(C(C)C(N)=O)C1C1CCC3C4(C)CCC(OC(C)=O)C(C)(C)C4CCC3(C)C1(C)CC2 (stereo not drawn)
cases of cancer cell lethality: 57

COMPOUND: C=C(C)[C@@H]1CC[C@]2(C(=O)OC)CC[C@]3(C)[C@H](CC[C@@H]4[C@@]5(C)CCC(=NOCCC(=NOCCC#N)NCCC#N)C(C)(C)[C@@H]5CC[C@]43C)[C@@H]12
cases of cancer cell lethality: 11

COMPOUND: C=C(C)[C@@H]1CC[C@]2(C(=O)NCCNCCNCCN)CC[C@]3(C)[C@H](CC[C@@H]4[C@@]5(C)CCC(=O)C(C)(C)[C@@H]5CC[C@]43C)[C@@H]12
cases of cancer cell lethality: 50

###

# Tested on: Rat Liver ER Neutral α-Glucosidase
# PROCEDURE DETAILS: Endoplasmic reticulum α-glucosidase activity assay
# Assay type: biochemical
# CONDITION: 10 μM
The entries below come with measured Rat Liver ER Neutral α-Glucosidase Inhibition, m ± SD values attached.
PROPERTY LABEL: Rat Liver ER Neutral α-Glucosidase Inhibition, m ± SD (%)

SMILES STRING: C=C(C)[C@@H]1CC[C@]2(C(=O)OC)CC[C@]3(C)[C@H](CC[C@@H]4[C@@]5(C)C/C(=C/NC(N)=O)C(=O)C(C)(C)[C@@H]5CC[C@]43C)[C@@H]12
TARGET OR SYSTEM: Rat Liver ER Neutral α-Glucosidase
UNIT ANNOTATION: %
MEASURED NUMBER: 8.76

SMILES STRING: C=C(C)[C@@H]1CC[C@]2(C(=O)NCCNCCN)CC[C@]3(C)[C@H](CC[C@@H]4[C@@]5(C)CCC(=O)C(C)(C)[C@@H]5CC[C@]43C)[C@@H]12
TARGET OR SYSTEM: Rat Liver ER Neutral α-Glucosidase
UNIT ANNOTATION: %
MEASURED NUMBER: 10.21

SMILES STRING: C=C(C)[C@@H]1CC[C@]2(CO)CC[C@]3(C)[C@H](CC[C@@H]4[C@@]5(C)CCCNC(C)(C)[C@@H]5CC[C@]43C)[C@@H]12
TARGET OR SYSTEM: Rat Liver ER Neutral α-Glucosidase
UNIT ANNOTATION: %
MEASURED NUMBER: −1.34

SMILES STRING: C=C(C)[C@@H]1CC[C@]2(COCCCN)CC[C@]3(C)[C@H](CC[C@@H]4[C@@]5(C)CC[C@H](OCCCN)C(C)(C)[C@@H]5CC[C@]43C)[C@@H]12
TARGET OR SYSTEM: Rat Liver ER Neutral α-Glucosidase
UNIT ANNOTATION: %
MEASURED NUMBER: 56.64

SMILES STRING: C=C(C)[C@@H]1CC[C@]2(C(=O)OC)CC[C@]3(C)[C@H](CC[C@@H]4[C@@]5(C)C/C(=C/NC(N)=S)C(=O)C(C)(C)[C@@H]5CC[C@]43C)[C@@H]12
TARGET OR SYSTEM: Rat Liver ER Neutral α-Glucosidase
UNIT ANNOTATION: %
MEASURED NUMBER: 11.63

###

The entries below come with measured inhibition at 32 µg/mL values attached.
# Test system: Acinetobacter baumannii
# PROCEDURE DETAILS: Antibacterial growth inhibition, A. baumannii
# Assay type: cell-based
# CONDITION: ATCC27853, A. baumannii Strain ATCC 27853

SMILES STRING: C=C(C)[C@@H]1CC[C@]2(C(=O)OC)CC[C@]3(C)[C@H](CC[C@@H]4[C@@]5(C)C/C(=C/NC(N)=S)C(=O)C(C)(C)[C@@H]5CC[C@]43C)[C@@H]12
UNIT ANNOTATION: %
inhibition at 32 µg/mL: 28.2

SMILES STRING: C=C(C)[C@@H]1CC[C@]2(C(=O)OC)CC[C@]3(C)[C@H](CC[C@@H]4[C@@]5(C)C/C(=C/NC(N)=O)C(=O)C(C)(C)[C@@H]5CC[C@]43C)[C@@H]12
UNIT ANNOTATION: %
inhibition at 32 µg/mL: 40.9

SMILES STRING: C=C(C)[C@@H]1CC[C@]2(C(=O)NCCNCCN)CC[C@]3(C)[C@H](CC[C@@H]4[C@@]5(C)CCC(=O)C(C)(C)[C@@H]5CC[C@]43C)[C@@H]12
UNIT ANNOTATION: %
inhibition at 32 µg/mL: 19.5

SMILES STRING: C=C(C)[C@@H]1CC[C@]2(C(=O)N3CCCNCC3)CC[C@]3(C)[C@H](CC[C@@H]4[C@@]5(C)CCC(=O)C(C)(C)[C@@H]5CC[C@]43C)[C@@H]12
UNIT ANNOTATION: %
inhibition at 32 µg/mL: 33.1

###

# System: 60 human tumor cell lines
# PROCEDURE DETAILS: cells
# CONDITION: read-out: Range of Growth, %
The entries below come with measured activity at 10 µM values attached.
PROPERTY LABEL: activity at 10 µM

SMILES STRING: C=C(C)[C@@H]1CC[C@]2(C(=O)NCCCCCCN(CCCN)CCCN)CC[C@]3(C)[C@H](CC[C@@H]4[C@@]5(C)CC[C@H](O)C(C)(C)[C@@H]5CC[C@]43C)[C@@H]12
PROPERTY LABEL: activity at 10 µM
RESULT: 20.4 to 135%
--
SMILES STRING: C=C(C)[C@@H]1CC[C@]2(C=NCCCNCCCCN)CC[C@]3(C)[C@H](CC[C@@H]4[C@@]5(C)CCC(=O)C(C)(C)[C@@H]5CC[C@]43C)[C@@H]12
PROPERTY LABEL: activity at 10 µM
RESULT: 80.5 to 123%
--
SMILES STRING: C=C(C)[C@@H]1CC[C@]2(C(=O)NCCCNCCCN)CC[C@]3(C)[C@H](CC[C@@H]4[C@@]5(C)CCC(=O)C(C)(C)[C@@H]5CC[C@]43C)[C@@H]12
PROPERTY LABEL: activity at 10 µM
RESULT: 59.3 to 141%
--
SMILES STRING: C=C(C)[C@@H]1CC[C@]2(C(=O)NCCCCCCN(CCCN)CCCN)CC[C@]3(C)[C@H](CC[C@@H]4[C@@]5(C)CC[C@H](OCCCN)C(C)(C)[C@@H]5CC[C@]43C)[C@@H]12
PROPERTY LABEL: activity at 10 µM
RESULT: -39.5 to 141%
--
SMILES STRING: C=C(C)[C@@H]1CC[C@]2(C=NCCCNCCCCN)CC[C@]3(C)[C@H](CC[C@@H]4[C@@]5(C)CCCNC(C)(C)[C@@H]5CC[C@]43C)[C@@H]12
PROPERTY LABEL: activity at 10 µM
RESULT: 21.7 to 132%
--
SMILES STRING: C=C(C)[C@@H]1CC[C@]2(C(=O)NCCCC[C@@H](N)C(=O)OC)CC[C@]3(C)[C@H](CC[C@@H]4[C@@]5(C)CCC(=O)C(C)(C)[C@@H]5CC[C@]43C)[C@@H]12
PROPERTY LABEL: activity at 10 µM
RESULT: 79.2 to 111%
--
SMILES STRING: C=C(C)[C@@H]1CC[C@]2(C(=O)NN(CCN(CCNC(=O)OC(C)(C)C)C(=O)OC(C)(C)C)C(=O)OC(C)(C)C)CC[C@]3(C)[C@H](CC[C@@H]4[C@@]5(C)CCC(=O)C(C)(C)[C@@H]5CC[C@]43C)[C@@H]12
PROPERTY LABEL: activity at 10 µM
RESULT: 56.8 to 114%
--
SMILES STRING: C=C(C)[C@@H]1CC[C@]2(C(N)=O)CC[C@]3(C)[C@H](CC[C@@H]4[C@@]5(C)CCC(=O)C(C)(C)[C@@H]5CC[C@]43C)[C@@H]12
PROPERTY LABEL: activity at 10 µM
RESULT: 25.9 to 115%
--
SMILES STRING: C=C(C)[C@@H]1CC[C@]2(C(=O)OC)CC[C@]3(C)[C@H](CC[C@@H]4[C@@]5(C)C/C(=C/NC(N)=O)C(=O)C(C)(C)[C@@H]5CC[C@]43C)[C@@H]12
PROPERTY LABEL: activity at 10 µM
RESULT: 21.2 to 112%
--
SMILES STRING: C=C(C)[C@@H]1CC[C@]2(C(=O)N3CCNCC3)CC[C@]3(C)[C@H](CC[C@@H]4[C@@]5(C)CCC(=O)C(C)(C)[C@@H]5CC[C@]43C)[C@@H]12
PROPERTY LABEL: activity at 10 µM
RESULT: 87.8 to 111%
